# Internalization Rec-1 [MFI] values compiled below
measured-target: T1, CXCR5 (CD185; SwissProt: P32302; NCBI reference sequence: NP_001707.1) (human, UniProt P32302 1-372)
T1 sequence: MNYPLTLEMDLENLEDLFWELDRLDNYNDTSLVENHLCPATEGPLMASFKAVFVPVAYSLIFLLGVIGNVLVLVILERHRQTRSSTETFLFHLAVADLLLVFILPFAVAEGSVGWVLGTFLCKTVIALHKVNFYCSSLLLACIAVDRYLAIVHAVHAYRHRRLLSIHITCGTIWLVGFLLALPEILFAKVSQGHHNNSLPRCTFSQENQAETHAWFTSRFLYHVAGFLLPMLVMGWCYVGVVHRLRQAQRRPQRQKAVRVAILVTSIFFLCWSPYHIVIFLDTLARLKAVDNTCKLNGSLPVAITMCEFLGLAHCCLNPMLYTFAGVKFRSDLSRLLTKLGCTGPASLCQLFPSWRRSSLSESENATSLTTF
assay-name: cell-based or functional assay
# unit: MFI | format: bare number

Reference set, count: 4
>>> observed_measurement("TPP-14505 (antibody, human IgG1, lambda, V domains shown, CypHer 5E fluorescent dye coupled to lysine residues (positions not stated)) VH: EVQLLESGGGLVQPGGSLRLSCAASGFTFSNNWMSWVRQAPGKGLEWVSAISGSGGSTYYADSVKGRFTISRDNSKNTLYLQMNSLRAEDTAVYYCNVQRRELGATNWGQGTLVTVSS VL: QSVLTQPPSASGTPGQRVTISCTGSSSNIGAGYVVHWYQQLPGTAPKLLIYSNNQRPSGVPDRFSGSKSGTSASLAISGLRSEDEADYYCQSYDSSLSGVVFGGGTKLTVLG")
135
>>> observed_measurement("TPP-10063 (antibody, human IgG1, lambda, V domains shown, CypHer 5E fluorescent dye coupled to lysine residues (positions not stated)) VH: EVQLLESGGGLVQPGGSLRLSCAASGFTFSNYWMSWVRQAPGKGLEWVSAISGSGGSTYYADSVKGRFTISRDNSKNTLYLQMNSLRAEDTAVYYCTTLRRELGATNWGQGTLVTVSS VL: QSVLTQPPSASGTPGQRVTISCTGSSSNIGAGYVVHWYQQLPGTAPKLLIYSNNQRPSGVPDRFSGSKSGTSASLAISGLRSEDEADYYCQSYDSSLSGVVFGGGTKLTVLG")
65
>>> observed_measurement("TPP-14499 (antibody, human IgG1, lambda, V domains shown, CypHer 5E fluorescent dye coupled to lysine residues (positions not stated)) VH: EVQLLESGGGLVQPGGSLRLSCAASGFTFSNYWGSWVRQAPGKGLEWVSAISGSGGSTYYADSVKGRFTISRDNSKNTLYLQMNSLRAEDTAVYYCTVLRRELGATNWGQGTLVTVSS VL: QSVLTQPPSASGTPGQRVTISCTGSSSNIGAGYVVHWYQQLPGTAPKLLIYSNNQRPSGVPDRFSGSKSGTSASLAISGLRSEDEADYYCQSYDSSLSGVVFGGGTKLTVLG")
122
>>> observed_measurement("TPP-14511 (antibody, human IgG1, lambda, V domains shown, CypHer 5E fluorescent dye coupled to lysine residues (positions not stated)) VH: EVQLLESGGGLVQPGGSLRLSCAASGFTFSNYWMSWVRQAPGKGLEWVSAISGSGGTTYYADSVKGRFTISRDNSKNTLYLQMNSLRAEDTAVYYCTTQRRELGATNWGQGTLVTVSS VL: QSVLTQPPSASGTPGQRVTISCTGSSSNIGAGYVVHWYQQLPGTAPKLLIYSNNQRPSGVPDRFSGSKSGTSASLAISGLRSEDEADYYCQSYDSSLSGVVFGGGTKLTVLG")
99

Now consider the entry below.
What does the record list as Internalization Rec-1 [MFI] for TPP-14514 (antibody, human IgG1, lambda, V domains shown, CypHer 5E fluorescent dye coupled to lysine residues (positions not stated)) VH: EVQLLESGGGLVQPGGSLRLSCAASGFTFSNNWMSWVRQAPGKGLEWVSAISGSGGSTYYADSVKGRFTISRDNSKNTLYLQMNSLRAEDTAVYYCTVQRRELGATNWGQGTLVTVSS VL: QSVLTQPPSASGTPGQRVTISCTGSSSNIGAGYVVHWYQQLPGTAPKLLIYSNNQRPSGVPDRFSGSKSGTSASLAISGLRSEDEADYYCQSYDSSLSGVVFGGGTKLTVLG ?
134
